Source: patent US20230040182A1

pIC50: recorded values
- target-of-assay: Kv1.3 potassium channel (Homo sapiens, UniProt P22001)
- Sequence (P22001 whole entry): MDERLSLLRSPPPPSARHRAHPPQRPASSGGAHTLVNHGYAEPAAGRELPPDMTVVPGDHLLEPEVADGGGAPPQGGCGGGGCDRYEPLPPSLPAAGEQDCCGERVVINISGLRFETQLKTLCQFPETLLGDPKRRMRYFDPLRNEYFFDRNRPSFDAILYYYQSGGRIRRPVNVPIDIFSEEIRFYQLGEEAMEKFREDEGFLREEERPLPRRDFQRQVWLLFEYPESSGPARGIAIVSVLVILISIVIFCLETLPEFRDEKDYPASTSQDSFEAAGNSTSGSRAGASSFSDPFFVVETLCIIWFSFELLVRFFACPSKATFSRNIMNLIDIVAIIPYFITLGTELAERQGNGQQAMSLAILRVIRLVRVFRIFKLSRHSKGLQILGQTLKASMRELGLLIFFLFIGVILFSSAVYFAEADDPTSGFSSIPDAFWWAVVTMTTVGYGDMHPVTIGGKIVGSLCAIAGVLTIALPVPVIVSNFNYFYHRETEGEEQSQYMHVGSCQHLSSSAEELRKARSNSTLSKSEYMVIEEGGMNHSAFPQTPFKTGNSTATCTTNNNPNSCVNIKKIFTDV
- experiment-summary: Kv1.3 potassium channel blocker activity, automated whole-cell patch clamp (Patchliner)
- condition-set: CHO-K1 cells stably expressing Kv1.3; whole-cell current, Hill fit
pIC50: −log10 of the molar value.

INPUT: I would be grateful if you could share the reported pIC50 for O=C1[C@H]2C[C@@H](c3cc(Cl)c(Cl)cc3O)CCN2C(=O)CN1C1CNC1 [Compound 10] .
OUTPUT: > 5.00

INPUT: Thanks! And CC(C)[C@H](O)[C@H]1NC(=O)[C@H]2C[C@@H](c3c(O)ccc(Cl)c3Cl)CCN2C1=O [Compound 61] ?
OUTPUT: > 5.00

INPUT: And the next one, O=C1[C@H]2[C@@H](O)CCN2C(=O)[C@@H]2C[C@H](c3c(O)ccc(Cl)c3Cl)CCN12 [Compound 12] ?
OUTPUT: > 6.00

====

- target-of-assay: Kv1.3 potassium channel (Homo sapiens)
- experiment-summary: Kv1.3 potassium channel blocker activity, automated whole-cell patch clamp (Patchliner)
- condition-set: CHO-K1 cells stably expressing Kv1.3; whole-cell current, Hill fit
- Procedure: Example 9. Evaluation of Kv1.3 Potassium Channel Blocker Activities This assay is used to evaluate the disclosed compounds' activities as Kv1.3 potassium channel blockers. CHO-K1 cells stably expressing Kv1.3 were grown in DMEM containing 10% heat-inactivated FBS, 1 mM Sodium Pyruvate, 2 mM L-Glutamine and G418 (500 μg/ml). Cells were grown in culture flasks at 37° C. in a […] incubator. […]
measured-quantity: IC50

Sample answers from the record:
INPUT: I would be grateful if you could share the reported IC50 for O=C1N[C@@H](CO)C(=O)N2CC[C@@H](c3c(O)ccc(Cl)c3Cl)C[C@@H]12 .
OUTPUT: < 1000 nM

INPUT: Field entry: O=C1[C@H]2[C@H](O)CCN2C(=O)[C@@H]2C[C@H](c3c(O)ccc(Cl)c3Cl)CCN12 (single isomer, unassigned; isomer 3)
OUTPUT: < 1000 nM

INPUT: Also, NC[C@H]1NC(=O)[C@@H]2C[C@H](c3c(O)ccc(Cl)c3Cl)CCN2C1=O (relative stereo) please.
OUTPUT: < 1000 nM

***
INPUT: Given the entry CC1(C)NC(=O)C2CC(c3c(O)ccc(Cl)c3Cl)CCN2C1=O (stereo not shown) , report its measured IC50.
OUTPUT: < 10000 nM

INPUT: And then O=C1N[C@H](CCO)C(=O)N2CC[C@H](c3c(O)ccc(Cl)c3Cl)C[C@H]12 , what is it?
OUTPUT: < 30000 nM

INPUT: Another compound to check: O=C1N[C@H](CO)C(=O)N2CC[C@@H](c3c(O)cc(Cl)c(Cl)c3Cl)C[C@@H]12
OUTPUT: < 1000 nM

INPUT: What do we get for Cc1c(Cl)ccc(O)c1[C@@H]1CCN2C(=O)[C@@H](CO)NC(=O)[C@@H]2C1 (relative stereo) ?
OUTPUT: < 10000 nM

====

Listing: pIC50 of selected molecules
- target-of-assay: UniProt:P22001
- experiment-summary: Kv1.3 potassium channel blocker activity, automated whole-cell patch clamp (Patchliner)
- condition-set: CHO-K1 cells stably expressing Kv1.3; whole-cell current, Hill fit
pIC50: −log10 of the molar value.

INPUT: So what pIC50 did O=C1[C@@H]2C[C@H](c3c(O)ccc(Cl)c3Cl)CCN2C(=O)CN1C1CC(O)C1 (relative stereo) [Compound 20] get with UniProt:P22001?
OUTPUT: > 6.00

INPUT: // same read-out, input: Cc1cc(O)c([C@@H]2CCN3C(=O)[C@@H](CO)NC(=O)[C@@H]3C2)c(Cl)c1Cl (relative stereo) [Compound 22]
OUTPUT: > 6.00

New cases:
INPUT: For UniProt:P22001, provide pIC50 of CC(C)[C@H]1NC(=O)[C@H]2C[C@@H](c3c(O)ccc(Cl)c3Cl)CCN2C1=O [Compound 48] please.
OUTPUT: > 5.00

====

Listed below: pIC50 values for each entry.
- target-of-assay: Kv1.3 potassium channel (Homo sapiens)
- Construct: expressed in transfected cells
- experiment-summary: Kv1.3 potassium channel blocker activity, automated whole-cell patch clamp (Patchliner)
- Assay type: cell-based
- condition-set: CHO-K1 cells stably expressing Kv1.3; whole-cell current, Hill fit
pIC50: −log10 of the molar value.

Worked cases, answers included:
INPUT: Return pIC50 measured with Kv1.3 potassium channel (Homo sapiens) given this compound: O=C1NCC(=O)N2CC[C@@H](c3c(O)ccc(Cl)c3Cl)C[C@@H]12
OUTPUT: > 6.00

INPUT: Also CC[C@H]1NC(=O)[C@H]2C[C@@H](c3c(O)ccc(Cl)c3Cl)CCN2C1=O , if possible.
OUTPUT: > 6.00

INPUT: Follow-up entry: O=C1[C@@H]2C[C@H](c3c(O)ccc(Cl)c3Cl)CCN2C(=O)[C@H]2CC(O)CCN12 (some centres unmarked)
OUTPUT: > 6.00

More entries:
INPUT: Hello, I am looking for reported pIC50 with Kv1.3 potassium channel (Homo sapiens) for NN1C(=O)[C@H]2C[C@@H](c3c(O)ccc(Cl)c3Cl)CCN2C1=O . Could you help?
OUTPUT: > 6.00

INPUT: Query O=C1[C@@H]2C[C@H](c3c(O)ccc(Cl)c3Cl)CCN2C(=O)CN1C1CC(O)C1 (single isomer, unassigned; isomer 2) [Compound 44] next
OUTPUT: > 6.00

INPUT: Now consider CN1C(=O)[C@H]2C[C@@H](c3c(O)ccc(Cl)c3Cl)CCN2C(=O)[C@H]1CO and answer again.
OUTPUT: > 4.52

====

- target-of-assay: Kv1.3 potassium channel (Homo sapiens, UniProt P22001)
- experiment-summary: Kv1.3 potassium channel blocker activity, automated whole-cell patch clamp (Patchliner)
- condition-set: CHO-K1 cells stably expressing Kv1.3; whole-cell current, Hill fit
measured-quantity: IC50

Use the examples below as a reference point.
INPUT: What value of IC50 has been reported for the following molecule? O=C1N[C@H](CO)C(=O)N2CC[C@@H](c3c(O)ccc(Cl)c3Cl)C[C@@H]12 [Compound 2]
OUTPUT: < 1 µM

INPUT: Also C[C@H]1NC(=O)[C@H]2C[C@@H](c3c(O)ccc(Cl)c3Cl)CCN2C1=O [Compound 62] ?
OUTPUT: < 10 µM

INPUT: Same question for O=C1[C@@H]2C[C@@H](O)CN2C(=O)[C@@H]2C[C@H](c3c(O)ccc(Cl)c3Cl)CCN12 [Compound 43] please.
OUTPUT: < 10 µM

INPUT: Try the molecule O=C1NCCC(=O)N2CCC(c3c(O)ccc(Cl)c3Cl)CC12 (centres unmarked) [Compound 8]
OUTPUT: < 1 µM

New cases:
INPUT: // returns reported IC50 for input O=C1NCC(=O)N2CC[C@H](c3c(O)ccc(Cl)c3Cl)C[C@H]12 [Compound 56]
OUTPUT: < 10 µM

====

- target-of-assay: Kv1.3 potassium channel (Homo sapiens)
- Construct: expressed in transfected cells
- experiment-summary: Kv1.3 potassium channel blocker activity, automated whole-cell patch clamp (Patchliner)
- Type: cell-based
- condition-set: CHO-K1 cells stably expressing Kv1.3; whole-cell current, Hill fit
pIC50: −log10 of the molar value.
measured-quantity: pIC50

INPUT: Which pIC50 value is on record for C[C@@H](O)[C@H]1NC(=O)[C@@H]2C[C@H](c3c(O)ccc(Cl)c3Cl)CCN2C1=O ?
OUTPUT: > 6.00

INPUT: Again, but for C[C@H](O)[C@H]1NC(=O)[C@H]2C[C@@H](c3c(O)ccc(Cl)c3Cl)CCN2C1=O
OUTPUT: > 5.00

INPUT: What would you report for CC(C)[C@@H](O)[C@@H]1NC(=O)[C@H]2C[C@@H](c3c(O)ccc(Cl)c3Cl)CCN2C1=O ?
OUTPUT: > 5.00

INPUT: Query O=C1[C@H]2[C@H](O)CCN2C(=O)[C@H]2C[C@@H](c3c(O)ccc(Cl)c3Cl)CCN12 (single isomer, unassigned; isomer 2) next
OUTPUT: > 6.00

***
INPUT: Query: pIC50; subject: NN1C(=O)[C@@H]2C[C@H](c3c(O)ccc(Cl)c3Cl)CCN2C1=O
OUTPUT: > 6.00
